Tested on: Chordin-like protein 2 (CHRDL2)
Protocol Description: CHRDL2 small-molecule binders, primary screen, biochemical, small-molecule microarray, 635 nm fluorescence (AID 1126);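 further: printed compound slides probed with Chrdl2 protein at 4 µg/mL for 1 h at 4 C; score merges 667 nm emission intensity with signal to noise over three replicate slides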
Assay Context: small-molecule microarray binding, fluorescence 635 nm; higher = more signal
Measure: composite z-score
Keep the answer to the number alone.

> print(dat)
                             item.smiles            measure  value.measured
1  CC(C)[C@@H](C(=O)O)n1cc(-c2ccccc2)nn1  composite z-score          -0.145

Given the entry CCOC(=O)C1=C[C@@H](C(C)(C)C)N(S(=O)(=O)c2ccc(C)cc2)[C@H]1c1ccccc1Cl , report its measured composite z-score.
-0.584

Also C[N+](C)(C)CCCC[C@@H]1NC(=O)[C@H]2C[C@@H](C(=O)NCCCCCNC(=O)CS)[C@@H](c3ccc(O)cc3)N2C1=O ?
0.268

Also C=CCN1C(=O)[C@]2(O[C@H](CCO)[C@@H]([Si](C)(C)c3ccc(OC)cc3)[C@@H]2C)c2ccccc21 ?
-0.884

Also O=C1N(Cc2ccccc2)c2ccccc2[C@H]2OC(c3ccc(OCCCO)cc3)=N[C@@]12Cc1ccccc1 ?
0.41

---

Target Entity: Neurogenic locus notch homolog protein 3 (Homo sapiens)
Protocol Description: NOTCH3 binders on small-molecule microarray, primary screen, biochemical, 635/667 nm fluorescence (AID 1096)
Assay Context: NOTCH3 binding, 635 nm fluorescence, higher = more signal
Decision: composite z-score >= 0.04 yields TRUE, all other cases yield FALSE.

Past entries and their recorded results:
Compound	Class Name
COCC(=C=CC[C@@H](O)c1cccc(OCCO)c1)C[C@@H](O)COCc1ccccc1	TRUE
COCCOC(=O)N1C(=O)[C@@]2(c3cc(C#CCC(C(=O)OC)C(=O)OC)ccc31)[C@H](C(N)=O)[C@H]1C(=O)O[C@H](c3ccccc3)[C@H](c3ccccc3)N1[C@@H]2c1ccc(OCCO)cc1	TRUE

Dear colleague, could you confirm whether COc1cc(OC)c(C(O)C2C=CC3C(=O)N(c4ccccc4)C(=O)C3N2Nc2ccccc2F)cc1Br (centres undefined) has composite z-score at or above 0.04?
TRUE

Also COC(=O)[C@@]1(Cc2ccc(F)cc2)[C@H]2c3cc(C(=O)N(C)C)n(CCO)c3C[C@H]2CN1C(=O)c1ccccc1 ?
FALSE

Also CCCC[C@@H](O)C1=C(COC)Cn2c(=O)n(-c3ccccc3)c(=O)n2[C@H]1CO ?
FALSE

Also C=CC[C@]1(C(=O)N(C)C)COC(c2ccc(OCCCO)cc2)=N1 ?
FALSE

Also C=CC[C@]1(C(=O)NCCCOC)N=C(c2ccc(OCCCO)cc2)O[C@H]1c1ccccc1 ?
FALSE

Also CCOC(=O)C[C@H]1[C@H](OC(=O)c2cc3ccccc3oc2=O)[C@@H](NC(=O)C2CCCCC2)c2cc(OCCCO)ccc2N1C(=O)Cc1ccc(OC)cc1 ?
TRUE

Also CCCCC(O)C1C=CC2C(=O)NC(=O)C2N1Nc1ccccn1 (centres undefined) ?
FALSE

Also [N-]=[N+]=NCc1ccccc1[C@H]1OC(c2ccc(OCCCO)cc2)=N[C@@]1(Cc1ccccc1)C(=O)N1CCOCC1 ?
TRUE

Also CCC[C@@H]1C=C(C(=O)OCC)[C@H](c2ccccc2)N1S(=O)(=O)c1ccc(C)cc1 ?
TRUE

Also Cc1ccc(S[C@]2(C(=O)NC3CC3)CC(=O)N(Cc3cc(C(F)(F)F)cc(C(F)(F)F)c3)[C@@H]2c2ccc(CO)cc2I)cc1 ?
TRUE

Also N#Cc1ccc(C(O)C2C=CC3C(=O)N(c4ccccc4)C(=O)C3N2Nc2ccc([N+](=O)[O-])cc2)cc1 (centres undefined) ?
TRUE

Also CCOC(=O)C[C@H]1[C@H](OC(=O)c2ccc(-c3ccccc3)cc2)[C@@H](NC(=O)CC(C)C)c2cc(OCCCO)ccc2N1C(=O)Cc1ccc(OC)cc1 ?
FALSE
